assay: Assessment of solubility: HT solubility in pION buffer, UV spectrophotometry; conditions: pION system solution buffer, pH 7.4, pH 7.4, aqueous buffer, kinetic from dmso stock, Solubility (pH 7.4), pH 7.4 buffer, 16-19 h incubation, 1.0% DMSO
MEASURED_ATTRIBUTE: solubility

The cases that follow already have their solubility on record.
Input: Which measured solubility value corresponds to COc1cc(CN2CCOCC2)ccc1COc1ccc(C)cc1-c1csc(N2CCC(C(=O)O)CC2)n1 ?
Output: 30 µg/mL

Input: Which measured solubility value corresponds to Cc1cc(CN2CCC(C(N)=O)CC2)ccc1COc1c(C)cccc1-c1csc(N2CCC(C(=O)O)CC2)n1 ?
Output: > 56 µg/mL

Input: Which measured solubility value corresponds to Cc1cc(C(=O)N2CCCCC2)ccc1COc1ccc(C#N)cc1-c1csc(N2C3CCC2CC(C(=O)O)C3)n1 (stereo not shown) ?
Output: > 56 µg/mL

Continuing:
Input: Which measured solubility value corresponds to Cc1ccc(OCc2ccc(C(=O)N3CCCCC3)cc2C)c(-c2csc([C@H]3CC[C@@H](C(=O)O)CC3)n2)c1 ?
Output: > 53 µg/mL

----------
test: Assessment of solubility: HT solubility in pION buffer, UV spectrophotometry; conditions: pH 6.8, aqueous buffer, kinetic from dmso stock, Solubility (pH 6.8), pH 6.8
MEASURED_ATTRIBUTE: log10 solubility (log10 of the value in µg/mL)
Please be aware that the numbers have been log10-transformed from solubility in µg/mL.

The cases that follow already have their log10 solubility on record.
Input: Which measured log10 solubility value corresponds to COC1CCN(C(=O)c2ccc(COc3ccc(C)cc3-c3csc(N4C[C@H]5CC[C@@H](C4)[C@H]5C(=O)O)n3)c(C)c2)CC1 ?
Output: 1.61

Input: Which measured log10 solubility value corresponds to Cc1ccc(OCc2ccc(C(=O)N(C)CCC(C)(C)O)cc2C)c(-c2csc(N3C[C@H]4CC[C@@H](C3)[C@H]4C(=O)O)n2)c1 ?
Output: 1.85

Input: Which measured log10 solubility value corresponds to Cc1ccc(OCc2ccc(CN3CCN(C(=O)C4CC4)CC3)cc2C)c(-c2csc(N3CC(CC(=O)O)C3)n2)c1 ?
Output: 1.71

Continuing:
Input: Which measured log10 solubility value corresponds to Cc1ccc(OCc2ccc(C(=O)N(C)CC(C)(C)CO)cc2C)c(-c2csc(N3C[C@H]4CC[C@@H](C3)[C@H]4C(=O)O)n2)c1 ?
Output: 1.56

Input: Which measured log10 solubility value corresponds to Cc1ccc(OCc2ccc(C(=O)N3CCn4cnnc4C3)cc2C)c(-c2csc(N3C[C@H]4CC[C@@H](C3)[C@H]4C(=O)O)n2)c1 ?
Output: 1.77

Input: Which measured log10 solubility value corresponds to Cc1ccc(OCc2ccc(C(=O)N(C)CC(=O)N(C)C)cc2C)c(-c2csc(N3C[C@H]4CC[C@@H](C3)[C@H]4C(=O)O)n2)c1 ?
Output: 1.82

----------
Listed compounds paired with reported EC50
biological target: human soluble guanylate cyclase alpha 1 and beta 1 subunits (sGC) stably expressed in Chinese hamster ovary cells (Homo sapiens, UniProt Q02108+Q02153); construct: expressed in transfected cells; host or cells: Chinese hamster ovary cells, stably transfected; test: sGC cellular activator assay: cGMP in CHO cells expressing human sGC, preincubated with ODQ; type: cell-based; conditions: 40 microM ODQ preincubation, 30 min at room temperature, presence or absence of 50% human serum not given, read-out: EC50 nM, Activity of Compounds in Cellular Assay
Sequence (Q02108 whole entry partner): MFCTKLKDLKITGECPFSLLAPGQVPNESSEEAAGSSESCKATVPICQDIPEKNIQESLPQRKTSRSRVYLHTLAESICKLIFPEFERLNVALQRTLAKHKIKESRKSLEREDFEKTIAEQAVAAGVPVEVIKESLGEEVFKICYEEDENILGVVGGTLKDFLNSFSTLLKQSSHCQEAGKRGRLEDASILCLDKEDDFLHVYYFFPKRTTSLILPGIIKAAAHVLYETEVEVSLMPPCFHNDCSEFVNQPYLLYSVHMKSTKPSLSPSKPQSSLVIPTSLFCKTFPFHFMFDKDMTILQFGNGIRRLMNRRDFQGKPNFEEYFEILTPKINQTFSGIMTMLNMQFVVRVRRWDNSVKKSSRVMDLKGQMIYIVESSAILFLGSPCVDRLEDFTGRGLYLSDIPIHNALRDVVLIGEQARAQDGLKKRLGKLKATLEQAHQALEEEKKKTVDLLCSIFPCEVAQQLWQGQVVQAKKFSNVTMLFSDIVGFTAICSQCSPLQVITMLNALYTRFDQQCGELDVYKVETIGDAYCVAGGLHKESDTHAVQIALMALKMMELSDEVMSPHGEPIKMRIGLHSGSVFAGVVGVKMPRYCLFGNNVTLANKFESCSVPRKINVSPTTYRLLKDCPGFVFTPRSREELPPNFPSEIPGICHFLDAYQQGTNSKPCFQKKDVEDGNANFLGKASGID
Sequence (Q02153 whole entry): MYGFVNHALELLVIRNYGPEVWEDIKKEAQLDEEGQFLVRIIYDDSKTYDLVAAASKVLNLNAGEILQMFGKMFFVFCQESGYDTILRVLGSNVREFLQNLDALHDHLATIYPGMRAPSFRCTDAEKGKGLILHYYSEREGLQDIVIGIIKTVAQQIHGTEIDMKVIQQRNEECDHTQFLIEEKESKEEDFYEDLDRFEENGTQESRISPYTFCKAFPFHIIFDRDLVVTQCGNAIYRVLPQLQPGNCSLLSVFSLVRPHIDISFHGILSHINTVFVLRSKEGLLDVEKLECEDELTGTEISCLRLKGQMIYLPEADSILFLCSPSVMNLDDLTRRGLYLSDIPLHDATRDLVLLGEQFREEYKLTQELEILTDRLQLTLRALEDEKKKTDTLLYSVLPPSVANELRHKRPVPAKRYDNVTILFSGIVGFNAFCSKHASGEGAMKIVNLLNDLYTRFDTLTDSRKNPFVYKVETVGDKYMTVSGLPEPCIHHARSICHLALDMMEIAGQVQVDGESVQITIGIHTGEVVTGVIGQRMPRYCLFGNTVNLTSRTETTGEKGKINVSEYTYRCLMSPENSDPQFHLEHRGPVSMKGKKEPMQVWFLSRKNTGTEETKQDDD
Answer format: number, then unit.

The cases that follow already have their EC50 on record.
Input: Which measured EC50 value corresponds to Cc1ccc(OCc2ccc(C(=O)N3CCCCC3)cc2C)c(-c2csc(N3CC(CC(=O)O)C3)n2)c1 ?
Output: 240 nM

Input: Which measured EC50 value corresponds to Cc1ccc(OCc2ccc(C(=O)N3CCCCC3)cc2C)c(-c2csc(N[C@@H]3CC[C@H](C(=O)O)C3)n2)c1 ?
Output: 650 nM

Input: Which measured EC50 value corresponds to Cc1ccc(OCc2ccc(CN3CCOCC3)cc2C)c(-c2csc(N3CCC4(C(=O)O)CC4C3)n2)c1 (stereo not shown) ?
Output: 18 nM

Input: Which measured EC50 value corresponds to Cc1ccc(OCc2ccc(C(=O)N3CCNC(=O)C3)cc2C)c(-c2csc(N3C[C@H]4CC[C@@H](C3)[C@H]4C(=O)O)n2)c1 ?
Output: 63 nM

Input: Which measured EC50 value corresponds to Cc1ccc(OCc2ccc(C(=O)N(C)CC(C)(C)CO)cc2C)c(-c2csc(N3C[C@H]4CC[C@@H](C3)[C@H]4C(=O)O)n2)c1 ?
Output: 67 nM

Continuing:
Input: Which measured EC50 value corresponds to Cc1cc(CN2CCS(=O)(=O)CC2)ccc1COc1c(C)cccc1-c1csc(N2C3CCC2CC(C(=O)O)C3)n1 (stereo not shown) ?
Output: 200 nM

Input: Which measured EC50 value corresponds to Cc1cc(C(=O)N2CCCCC2)ccc1COc1ccc(Cl)cc1-c1csc(N2CCC(C(=O)O)CC2)n1 ?
Output: 19 nM

----------
assay: Assessment of solubility: HT solubility in pION buffer, UV spectrophotometry; settings: pION system solution buffer, pH 4.5, pH 4.5, aqueous buffer, kinetic from dmso stock, Solubility (pH 4.5), pH 4.5 buffer, 16-19 h incubation, 1.0% DMSO
MEASURED_ATTRIBUTE: log10 of solubility (log10 of the value in µg/mL)
Please be aware that the numbers have been log10-transformed from solubility in µg/mL.

Input: Which measured log10 of solubility value corresponds to Cc1ccc(OCc2ccc(CN3CCN(S(=O)(=O)N(C)C)CC3)cc2C)c(-c2csc(N3CCC(C(=O)O)CC3)n2)c1 ?
Output: 0.93

Input: Which measured log10 of solubility value corresponds to Cc1ccc(OCc2ccc(CN3CCS(=O)(=O)CC3)cc2C)c(-c2csc(N3CC(CC(=O)O)C3)n2)c1 ?
Output: -0.30

Input: Which measured log10 of solubility value corresponds to Cc1cc(CN2CCOCC2)ccc1COc1ccc(F)cc1-c1csc(N2CCC(C(=O)O)C(C)C2)n1 (stereo not drawn) ?
Output: 1.64

Continuing:
Input: Which measured log10 of solubility value corresponds to Cc1cc(C(=O)N2CCCCC2)ccc1COc1ccc(F)cc1-c1csc([C@H]2CC[C@@H](C(=O)O)CC2)n1 ?
Output: -0.70

----------
Listed molecules paired with reported EC50
molecular target: human soluble guanylate cyclase alpha 1 and beta 1 subunits (sGC) stably expressed in Chinese hamster ovary cells (Homo sapiens, UniProt Q02108+Q02153); construct: expressed in transfected cells; host or cells: Chinese hamster ovary cells, stably transfected; assay: sGC cellular activator assay: cGMP in CHO cells expressing human sGC, preincubated with ODQ; type: cell-based; details: 40 microM ODQ preincubation, 30 min at room temperature, presence or absence of 50% human serum not given, read-out: EC50 nM, Activity of Compounds in Cellular Assay
Write the value in nM as a bare number.

The cases that follow already have their EC50 on record.
Input: Which measured EC50 value corresponds to Cc1ccc(OCc2ccc(CN3CCOCC3)cc2C)c(-c2csc(N3CC(C4(C(=O)O)CC4)C3)n2)c1 ?
Output: 710

Input: Which measured EC50 value corresponds to Cc1ccc(OCc2ccc(C(=O)N3CC[C@H](N(C)C)C3)cc2C)c(-c2csc(N3C[C@H]4CC[C@@H](C3)[C@H]4C(=O)O)n2)c1 ?
Output: 29

Input: Which measured EC50 value corresponds to Cc1ccc(OCc2ccc(C(=O)N3CCCCC3)cc2C)c(-c2csc(N3CC[C@@]4(C(=O)O)C[C@H]4C3)n2)c1 ?
Output: 13

Input: Which measured EC50 value corresponds to Cc1ccc(OCc2ccc(CN3CCOCC3)cc2OC(F)(F)F)c(-c2csc(N3CCC(C(=O)O)CC3)n2)c1 ?
Output: 16

Input: Which measured EC50 value corresponds to COC1CCN(C(=O)c2ccc(COc3ccc(C)cc3-c3csc(N4C[C@H]5CC[C@@H](C4)[C@H]5C(=O)O)n3)c(C)c2)CC1 ?
Output: 55

Input: Which measured EC50 value corresponds to Cc1cc(CN2CCS(=O)(=O)CC2)ccc1COc1ccc(Cl)cc1-c1csc(N2C3CCC2CC(C(=O)O)C3)n1 (stereo not shown) ?
Output: 93

Input: Which measured EC50 value corresponds to Cc1ccc(OCc2ccc(CN3CCN(C(=O)C4CC4)CC3)cc2C#N)c(-c2csc(N3CCC(C(=O)O)CC3)n2)c1 ?
Output: 76

Input: Which measured EC50 value corresponds to Cc1ccc(OCc2ccc(C(=O)N3CCC[C@@H](O)C3)cc2C)c(-c2csc(N3C[C@H]4CC[C@@H](C3)[C@H]4C(=O)O)n2)c1 ?
Output: 35

Input: Which measured EC50 value corresponds to Cc1ccc(OCc2ccc(C(=O)N3CC[C@H](O)C3)cc2C)c(-c2csc(N3C[C@H]4CC[C@@H](C3)[C@H]4C(=O)O)n2)c1 ?
Output: 120

Input: Which measured EC50 value corresponds to Cc1ccc(OCc2ccc(C(=O)N(C)Cc3nccn3C)cc2C)c(-c2csc(N3C[C@H]4CC[C@@H](C3)[C@H]4C(=O)O)n2)c1 ?
Output: 41

Then this molecule:
Input: Which measured EC50 value corresponds to Cc1ccc(OCc2ccc(C(=O)N3CCOCC3)cc2C)c(-c2csc(N3CC4(CC4C(=O)O)C3)n2)c1 (stereo not shown) ?
Output: 500
